# Read-out: Paternally Expressed 10 (PEG10), PEG10 (gene 23089)
# test.method.notes: LTEA_HepaRG_PEG10: Life Technologies and Expression Analysis (LTEA) Assay for Paternally Expressed 10 (PEG10) using HepaRG (AID 2283520);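 further: differentiated HepaRG human liver cells in serum-free induction medium with 0.5% DMSO; PEG10 transcript by qRT-PCR normalised to ACTB GAPDH and POLR2A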
# experimental.parameters: mRNA level, 48 h; actives raise or lower the signal
Activity calls are given as the source filed them. How the source made its calls: active means hit-call score of the fitted dose curve at least 0.9, where 1 is the maximum; inactive means score below 0.9.
Exercise: for every item that follows, state its recorded AC50.

Task item: Tell me measured AC50 for CC[C@H](C)[C@H]1O[C@]2(C=C[C@@H]1C)C[C@@H]1C[C@@H](C/C=C(\C)[C@@H](O[C@H]3C[C@H](OC)[C@@H](O[C@H]4C[C@H](OC)[C@@H](O)[C@H](C)O4)[C@H](C)O3)[C@@H](C)/C=C/C=C3\CO[C@@H]4[C@H](O)C(C)=C[C@@H](C(=O)O1)[C@]34O)O2 (tested in a mixture with another compound) please.
Reply: 49.3 µM (active)

Task item: Tell me measured AC50 for O=C(O)COc1ccc(Cl)cc1Cl please.
Reply: 10.1 µM (active)

Task item: Tell me measured AC50 for C#CCN1C(=O)COc2cc(F)c(N3C(=O)C4=C(CCCC4)C3=O)cc21 please.
Reply: 37.8 µM (active)

----------
# test.method.notes: TOX21_p53_BLA_p5_viability: Viability Assessment in the Tox21 HCT-116 p53 Agonism Beta-lactamase Assay, Phase 5 (AID 2283600)
Records with an inconclusive call do not appear. Calls of active or inactive are those of the source. How the source made its calls: active means hit-call score of the fitted dose curve at least 0.9, where 1 is the maximum; inconclusive means response in the unintended direction; inactive means score below 0.9.
Assign a class; possible classes are active, inactive

Task item: Please indicate how the test categorized O=C(O)C(F)(F)C(F)(F)C(F)(F)C(F)(F)C(F)(F)C(F)(F)C(F)(F)F .
Reply: inactive

Task item: Please indicate how the test categorized O=C(O)COc1ccc(Cl)cc1Cl .
Reply: inactive

Task item: Please indicate how the test categorized CCC(C)(NC(=O)c1cc(Cl)c(C)c(Cl)c1)C(=O)CCl (centres undefined) .
Reply: active

Task item: Please indicate how the test categorized O=[N+]([O-])c1c(Cl)c(Cl)c(Cl)c(Cl)c1Cl .
Reply: inactive

Task item: Please indicate how the test categorized CN1CSC(=S)N(C)C1 .
Reply: inactive

Task item: Please indicate how the test categorized O=C(O)CCCOc1ccc(Cl)cc1Cl .
Reply: inactive

Task item: Please indicate how the test categorized OCCOc1ccccc1 .
Reply: inactive

Task item: Please indicate how the test categorized COC(=O)c1ccccc1CS(=O)(=O)NC(=O)Nc1nc(OC)cc(OC)n1 .
Reply: inactive

Task item: Please indicate how the test categorized CC1(c2ccc(Oc3ccccc3)cc2)OC(=O)N(Nc2ccccc2)C1=O (centres undefined) .
Reply: inactive

Task item: Please indicate how the test categorized CC(C)(C)C(O)C(Oc1ccc(Cl)cc1)n1cncn1 (centres undefined) .
Reply: inactive

Task item: Please indicate how the test categorized COc1nn(CSP(=S)(OC)OC)c(=O)s1 .
Reply: inactive

Task item: Please indicate how the test categorized COC(=O)c1ccccc1S(=O)(=O)NC(=O)N(C)c1nc(C)nc(OC)n1 .
Reply: inactive

Task item: Please indicate how the test categorized CCCN(CCOc1c(Cl)cc(Cl)cc1Cl)C(=O)n1ccnc1 .
Reply: inactive

Task item: Please indicate how the test categorized CC(C)(C)C(O)/C(=C\c1ccc(Cl)cc1Cl)n1cncn1 (centres undefined) .
Reply: inactive

----------
# Read-out: Tumor necrosis factor (Homo sapiens)
# test.method.notes: BSK_LPS_TNFa: BioMAP Diversity Plus: LPS Assay for Tumour Necrosis Factor alpha (TNFa) Biomarker Activity (AID 2283085)
# experimental.parameters: primary human HUVEC with PBMC; actives raise or lower the signal
Active and inactive are the calls of the source. Rule for the calls: active = hit-call score of the fitted dose curve at least 0.9, where 1 is the maximum; inactive = score below 0.9.
Assign a class; possible classes are class 1 for active, class 0 for inactive

Task item: Please indicate how the test categorized CNC(=O)CSP(=S)(OC)OC .
Reply: class 0

Task item: Please indicate how the test categorized CNC(=O)Oc1cccc(N=CN(C)C)c1 .
Reply: class 0

Task item: Please indicate how the test categorized CCc1ccc(C(=O)NN(C(=O)c2cc(C)cc(C)c2)C(C)(C)C)cc1 .
Reply: class 1

Task item: Please indicate how the test categorized N#CN .
Reply: class 0

Task item: Please indicate how the test categorized CCS(=O)(=O)c1cccnc1S(=O)(=O)NC(=O)Nc1nc(OC)cc(OC)n1 .
Reply: class 1

Task item: Please indicate how the test categorized Clc1ccccc1-c1nnc(-c2ccccc2Cl)nn1 .
Reply: class 0

Task item: Please indicate how the test categorized CCOC1Oc2ccc(OS(C)(=O)=O)cc2C1(C)C (configuration not stated) .
Reply: class 0

----------
# Read-out: ABC Transporter (ABCB11), ABCB11 (gene 8647)
# test.method.notes: LTEA_HepaRG_ABCB11: Life Technologies and Expression Analysis (LTEA) Assay for ABC Transporter (ABCB11) using HepaRG (AID 2283463)
# experimental.parameters: mRNA level, 48 h; actives raise or lower the signal
Active and inactive are the calls of the source. How the source made its calls: active means hit-call score of the fitted dose curve at least 0.9, where 1 is the maximum; inactive means score below 0.9.
Assign a class; possible classes are class 1 for active, class 0 for inactive

Task item: Please indicate how the test categorized CCOC1Oc2ccc(OS(C)(=O)=O)cc2C1(C)C (centres undefined) .
Reply: class 1

Task item: Please indicate how the test categorized O=C(O)C(F)(F)C(F)(F)C(F)(F)C(F)(F)C(F)(F)C(F)(F)C(F)(F)F .
Reply: class 0

Task item: Please indicate how the test categorized CC(C)OC(=O)Nc1cccc(Cl)c1 .
Reply: class 0

Task item: Please indicate how the test categorized O=C1c2ccccc2C(=O)N1SC(Cl)(Cl)Cl .
Reply: class 0

Task item: Please indicate how the test categorized O=[N+]([O-])/N=C1\NCCN1Cc1ccc(Cl)nc1 .
Reply: class 1

Task item: Please indicate how the test categorized C[C@H]1[C@H](c2ccc(Cl)cc2)SC(=O)N1C(=O)NC1CCCCC1 .
Reply: class 1

Task item: Please indicate how the test categorized O=[N+]([O-])c1c(Cl)c(Cl)c(Cl)c(Cl)c1Cl .
Reply: class 0

Task item: Please indicate how the test categorized CNC(=O)/C=C(\C)OP(=O)(OC)OC .
Reply: class 0

Task item: Please indicate how the test categorized O=S1OCC2C(CO1)C1(Cl)C(Cl)=C(Cl)C2(Cl)C1(Cl)Cl (centres undefined) .
Reply: class 1

Task item: Please indicate how the test categorized COP(=S)(OC)Oc1ccc([N+](=O)[O-])cc1 .
Reply: class 0

Task item: Please indicate how the test categorized O=C(O)COc1ccc(Cl)cc1Cl .
Reply: class 1

Task item: Please indicate how the test categorized Cc1[nH]c(=O)n(C(C)(C)C)c(=O)c1Cl .
Reply: class 0

Task item: Please indicate how the test categorized CC1(C)C(C=C(Cl)Cl)C1C(=O)OC(C#N)c1ccc(F)c(Oc2ccccc2)c1 (centres undefined) .
Reply: class 0

Task item: Please indicate how the test categorized CC(C)(C)C(O)/C(=C\c1ccc(Cl)cc1Cl)n1cncn1 (centres undefined) .
Reply: class 1

----------
# Read-out: Signal transducer and activator of transcription 3 (Homo sapiens) (UniProt P40763)
# Sequence (P40763 whole entry, looked up): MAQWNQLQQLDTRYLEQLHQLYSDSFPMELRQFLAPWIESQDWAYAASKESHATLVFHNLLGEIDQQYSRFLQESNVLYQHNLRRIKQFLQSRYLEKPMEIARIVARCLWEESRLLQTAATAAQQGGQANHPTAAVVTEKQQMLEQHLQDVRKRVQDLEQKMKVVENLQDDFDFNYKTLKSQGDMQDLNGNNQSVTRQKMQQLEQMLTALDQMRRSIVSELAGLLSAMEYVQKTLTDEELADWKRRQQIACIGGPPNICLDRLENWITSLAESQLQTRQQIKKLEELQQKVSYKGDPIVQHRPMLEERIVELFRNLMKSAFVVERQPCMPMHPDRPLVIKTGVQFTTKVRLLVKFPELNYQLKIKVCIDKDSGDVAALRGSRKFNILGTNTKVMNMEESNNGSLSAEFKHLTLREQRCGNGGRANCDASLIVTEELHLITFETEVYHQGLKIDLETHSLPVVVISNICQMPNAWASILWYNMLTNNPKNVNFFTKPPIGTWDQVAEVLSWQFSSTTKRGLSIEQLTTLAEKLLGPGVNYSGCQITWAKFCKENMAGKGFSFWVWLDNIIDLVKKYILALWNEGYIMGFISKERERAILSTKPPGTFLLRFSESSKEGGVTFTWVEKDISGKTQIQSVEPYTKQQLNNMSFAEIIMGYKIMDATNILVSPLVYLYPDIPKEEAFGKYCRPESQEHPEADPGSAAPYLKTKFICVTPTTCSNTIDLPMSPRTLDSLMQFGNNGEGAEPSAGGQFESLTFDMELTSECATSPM
# test.method.notes: LTEA_HepaRG_STAT3: Life Technologies and Expression Analysis (LTEA) Assay for Signal transducer and activator of transcription (STAT3) using HepaRG (AID 2283529)
# experimental.parameters: mRNA level, 48 h; actives raise or lower the signal
The source made the active and inactive calls. Rule for the calls: active = hit-call score of the fitted dose curve at least 0.9, where 1 is the maximum; inactive = score below 0.9.
Assign a class; possible classes are active, inactive

Task item: Please indicate how the test categorized CNC(=O)Oc1cccc(N=CN(C)C)c1 .
Reply: inactive

Task item: Please indicate how the test categorized COP(=S)(OC)Oc1ccc([N+](=O)[O-])cc1 .
Reply: inactive

Task item: Please indicate how the test categorized CC[C@H](C)[C@H]1O[C@]2(C=C[C@@H]1C)C[C@@H]1C[C@@H](C/C=C(\C)[C@@H](O[C@H]3C[C@H](OC)[C@@H](O[C@H]4C[C@H](OC)[C@@H](O)[C@H](C)O4)[C@H](C)O3)[C@@H](C)/C=C/C=C3\CO[C@@H]4[C@H](O)C(C)=C[C@@H](C(=O)O1)[C@]34O)O2 (tested in a mixture with another compound) .
Reply: active

Task item: Please indicate how the test categorized Oc1ccc(Cl)cc1Cc1ccccc1 .
Reply: inactive

Task item: Please indicate how the test categorized C#CCN1C(=O)COc2cc(F)c(N3C(=O)C4=C(CCCC4)C3=O)cc21 .
Reply: inactive

Task item: Please indicate how the test categorized CC(C)N(C(=O)COc1nnc(C(F)(F)F)s1)c1ccc(F)cc1 .
Reply: inactive

Task item: Please indicate how the test categorized CCC(C)(NC(=O)c1cc(Cl)c(C)c(Cl)c1)C(=O)CCl (stereo not drawn) .
Reply: inactive

Task item: Please indicate how the test categorized CC1(c2ccc(Oc3ccccc3)cc2)OC(=O)N(Nc2ccccc2)C1=O (stereo not drawn) .
Reply: active

Task item: Please indicate how the test categorized C[C@H]1[C@H](c2ccc(Cl)cc2)SC(=O)N1C(=O)NC1CCCCC1 .
Reply: inactive

Task item: Please indicate how the test categorized CCc1ccc(C(=O)NN(C(=O)c2cc(C)cc(C)c2)C(C)(C)C)cc1 .
Reply: inactive

Task item: Please indicate how the test categorized CNC(=O)Oc1ccccc1OC(C)C .
Reply: inactive

Task item: Please indicate how the test categorized OCCOc1ccccc1 .
Reply: inactive

Task item: Please indicate how the test categorized O=C(O)COc1ccc(Cl)cc1Cl .
Reply: inactive

The measurements presented in this section are drawn from PubChem BioAssay (EPA / NIEHS).
